Some compounds, each annotated with its measured half-life.
# ASSAY: Plasma stability, mouse plasma
# CONDITION_CONTEXT: mouse, plasma, Half-life time, mouse plasma, 37° C., incubation 24 h (triplicates) or 6 h (duplicates)
Bridge positions count the residues as written; N and C are the ends. Peptide text beside a SMILES is read from it.
Use h as the unit, but write only the number.

Entry under test: CC(=O)N[C@@H](CO)C(=O)N[C@@H](CCCNC(=N)N)C(=O)N[C@@H](CC(C)C)C(=O)N[C@@H](CCC(=O)O)C(=O)N[C@H]1CC(=O)NCCCC[C@@H](C(=O)N[C@@H](CCCNC(=N)N)C(=O)N[C@@H](CC(C)C)C(=O)N[C@H](C(=O)N[C@@H](CCC(=O)O)C(N)=O)[C@@H](C)O)NC(=O)[C@H](CCCNC(=N)N)NC(=O)[C@H](CC(C)C)NC(=O)[C@H](CCC(=O)O)NC1=O [SD15196] (Ac-SRLEDELRKRLTE-NH2; lactam 5-9) . Its half-life was 26.2

Entry under test: CC(=O)N1CCC[C@H]1C(=O)N[C@@H](CO)C(=O)N[C@@H](CCCNC(=N)N)C(=O)N[C@@H](CC(C)C)C(=O)N[C@H]1CCC(=O)NCCCC[C@@H](C(=O)N[C@@H](CCCNC(=N)N)C(=O)N[C@@H](CCCNC(=N)N)C(=O)N[C@@H](CC(C)C)C(=O)N[C@H](C(=O)N[C@@H](CCC(=O)O)C(N)=O)[C@@H](C)O)NC(=O)[C@H](CC(C)C)NC(=O)[C@H](CCC(=O)O)NC(=O)[C@H](CCC(=O)O)NC1=O [SD15806] (Ac-PSRLEEELKRRLTE-NH2; lactam 5-9) . Its half-life was 14.9

# credit: patent US20250154202A1
